Target: GABARAP, O95166
Sequence (O95166 whole entry, the tested form may be a part): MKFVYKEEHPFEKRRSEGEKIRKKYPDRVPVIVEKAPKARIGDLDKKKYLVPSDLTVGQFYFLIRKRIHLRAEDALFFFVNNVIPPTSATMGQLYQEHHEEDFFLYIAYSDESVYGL
Assay: median log2 fold change of GCK-ALFA target abundance (FLAG IP / Myc IP barcode read proportion) (log2 ratio); each designed protein is fused to an ALFA-tag nanobody in HEK293 cells to bring the named protein to FLAG-tagged glucokinase (GCK); Myc marks an untargeted standard; higher = target protein stabilised (more abundant)
Conditions: target protein: 3xFLAG-MCP-GCK-ALFA reporter; HEK293 landing pad (RPLP)
Whole data set: some 4,500 sequences, median “median log2 fold change of GCK-ALFA target abundance (FLAG IP / Myc IP barcode read proportion)” near 0.078, cut for the lowest 2% near -0.6. The sample as a whole holds a higher share of the lowest values than the screen did.
Lab note: compare median log2 fold change against -0.2. Equal or greater, write True. Smaller, write False.

Tell me whether median log2 fold change is at least -0.2 here: GBRAP_95_7066 (protein) EEDREIAEDLIDTAEDLVEIGLYEQAARAAKAAVEVLKEIGETGELALRAAEVLVKVAEATGDEEAAEAAKEVLERIREAGGDEERIKELEKRLEEAKKK
True

Tell me whether median log2 fold change is at least -0.2 here: GBRAP_39_5630 (protein) EEEEELELLESLAEADLAKREVETGLPAEELYAELLARAREAAADDPELLALIERLAALAEEHGPEARERLAAAMAAYLAGLPKEDIKRLLTALIEELEA
True

Tell me whether median log2 fold change is at least -0.2 here: GBRAP_73_6498 (protein) LTDTGLTDEEIADIVDHENDIFNGGEEAYEAAVARIRAALPELSPERQELLRRILEAAERAKKKDKLLAYELVALALAVVEGLDLEKARRALEALEKRLE
False

Tell me whether median log2 fold change is at least -0.2 here: GBRAP_35_5578 (protein) EDKEMLLETVRDLAEATIEAIKEGDLDLAIALLEALLRTAELAVEELANDAEALEEIAALLERVIAAIKEHLADDPRVQALLARLEALLARTKALLAAVK
False

Tell me whether median log2 fold change is at least -0.2 here: GBRAP_52_6252 (protein) MRARLRADAREILELVKEGREEEARRLAREIAETYNEEELRLFIDEFAALAAEAPKEDIDDVWRAAEILAEALEEAGWEEVLVDDALARTAAALVKVEAK
False

Tell me whether median log2 fold change is at least -0.2 here: GBRAP_128_3576 (protein) SDEEILEKAKELIKKIIESDVEEAKKYAEELAKLLKEADPETREKIVELILEALPKLSVEKLEVLADVFREQRPKADPETANLLAEIEVEALNEAVEKEE
True

Tell me whether median log2 fold change is at least -0.2 here: GBRAP_160_4713 (protein) SETAEERKKYVDEEFERAKKLIEGETIEQRAIIVEGTVGEIIMEFVEDEKATDELIDEVIEIGDELVKTILENPNLTLEEIKELIDEAREKMKEAIDKHL
False

Tell me whether median log2 fold change is at least -0.2 here: GBRAP_53_6398 (protein) AAAAIAAGLAELEALIAEVEADPTLDAADVAARAGALLKALAAAGAPEAELTALARRLAAAVAARGLGVEVSTALAATAAAAGREAVAAVFTEAAVEDLE
True

Tell me whether median log2 fold change is at least -0.2 here: GBRAP_11_2689 (protein) KKEKLEEGAKLAEKGAELVERLLREGVDNEELLAELEKTLEELLKLAKKHASPASQKLTEDIKETWKRLLADPENAEEYARELLAGLRVLAGQYLLEIEE
True

Tell me whether median log2 fold change is at least -0.2 here: GBRAP_166_4906 (protein) MKEEKIEELIERAEELIEELKEADEEEALELLIEIGEVLRELKELGASEEEILELVRRTLEAVKERGLSVRVAAGIIAEVADFDEEMREKLDEIAREVEA
True

Tell me whether median log2 fold change is at least -0.2 here: GBRAP_137_3623 (protein) KKVKITFYEEDGVAIAEITADTSVDKEKVLEIVEEVAEKHGVKLVVALTEPDEPAVFYLVGTPEQVIAAVKELIKRLKEELGIEVELSSEGAEELVEEVK
False

Tell me whether median log2 fold change is at least -0.2 here: GBRAP_160_4108 (protein) SAGAEAILADFREVFAEVLELWDEVSPEELVAYYEVETGSVIMDAMENYGLSDETADRLLDIRDEAAARLLAHGNVSREEVERILAEALARIEAAVAAAA
False

Tell me whether median log2 fold change is at least -0.2 here: GBRAP_137_3622 (protein) KKVTITFYEEDGVAIAEITADTSVDKEKVLALVEEVAEEHGVQLVEALVEPDEPLVLYLVGTPEQVIAAVKDLIERLKSELGIEVVLESEGAEELVEEVK
False

Tell me whether median log2 fold change is at least -0.2 here: GBRAP_39_5693 (protein) EEDEENEDHVSYLQALAAKRLYETGISLEEATKEAKKILEEEAKRNPELKELLEELIKLAEEKGDEAKEVLIGVAVLIEEGEPKEEIKEHIEKAIKYFKK
True

Tell me whether median log2 fold change is at least -0.2 here: GBRAP_14_3799 (protein) MEEREKAIEEITEETLEILEEILADAPEEVRERVLELVEEARERIIKEKLSPDEIAELEDELLEEVAKILADAPPEVRAQVLAAISVGMGEIILEVEELE
False

Tell me whether median log2 fold change is at least -0.2 here: GBRAP_184_5315 (protein) EVIRRFITVETKEEAEKKLKEIKEEIKKSGKKYTVYIEVKNPTKELIDTVFEEIKKMKEEGVDADFILVVEEPVDEEMEDYIVEKAKEAGARAVIALPEE
True

All figures here come from the supplement of paper PMC12632987.
